For each entry below, report its unfolding free energy value.
B1: Ribonuclease, P00648 (parent)
chain: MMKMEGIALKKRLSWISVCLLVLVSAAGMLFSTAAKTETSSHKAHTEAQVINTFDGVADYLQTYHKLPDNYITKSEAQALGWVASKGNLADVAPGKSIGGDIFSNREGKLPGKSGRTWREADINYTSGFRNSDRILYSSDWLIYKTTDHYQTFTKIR

variants of: B1; conditions: Bacillus amyloliquefaciens; pH 4.4; 25 °C; Urea; NMR; Sodium acetate 30 mM; NaCl 1 M; structure 1BNI; whole UniProt chain shown
Give just the numeric value; kcal/mol need not be written.

Query block: # input variant: "D101N" ; wanted: its unfolding free energy
Result block: 5.48

Query block: # input variant: T73H D101N ; wanted: its unfolding free energy
Result block: 2.39

Query block: # input variant: "G81H" ; wanted: its unfolding free energy
Result block: 5.53

Query block: # input variant: "T53H" ; wanted: its unfolding free energy
Result block: 5.48
